Molecular target: Neuronal acetylcholine receptor subunit alpha-7 (Homo sapiens)
Sequence (P36544 whole entry): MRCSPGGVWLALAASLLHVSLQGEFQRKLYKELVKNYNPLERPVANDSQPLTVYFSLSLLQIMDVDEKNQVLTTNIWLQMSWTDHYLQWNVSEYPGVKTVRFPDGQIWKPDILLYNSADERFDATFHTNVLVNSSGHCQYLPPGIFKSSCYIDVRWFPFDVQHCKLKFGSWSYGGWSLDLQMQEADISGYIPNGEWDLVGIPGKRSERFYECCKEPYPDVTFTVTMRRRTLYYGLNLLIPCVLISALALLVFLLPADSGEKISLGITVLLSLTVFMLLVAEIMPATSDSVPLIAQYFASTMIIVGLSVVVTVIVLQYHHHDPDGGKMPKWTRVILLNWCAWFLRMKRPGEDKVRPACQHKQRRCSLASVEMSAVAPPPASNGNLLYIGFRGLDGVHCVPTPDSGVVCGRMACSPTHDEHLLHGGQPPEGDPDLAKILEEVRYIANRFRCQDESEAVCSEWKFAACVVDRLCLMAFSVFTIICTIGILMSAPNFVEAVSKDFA
Experiment: Positive allosteric modulation of recombinant human AChR alpha7 expressed in HEK cells co-expressing RIC-3 at -60 mV holding potential treated for 58 sec followed by acetylcholine applied for 1 sec measured potentiation effect by automated patch clamp electrophysiological method
measured attribute: EC50

COc1ccc(Cl)cc1NC(=O)[C@@H]1C(F)(F)C12CCN(S(N)(=O)=O)CC2
≤ 0.1 µM

Now examine the next entry.
Which EC50 value belongs to NS(=O)(=O)N1CCC2(CC1)C(COc1noc(-c3ccccc3)n1)C2(F)F (stereo unspecified) ?
≤ 0.1 µM

Data provenance: ChEMBL document CHEMBL4715920
